SYSTEM_TESTED: Acetylcholinesterase (AChE) (Electrophorus electricus, UniProt O42275)
Sequence (O42275 24-633): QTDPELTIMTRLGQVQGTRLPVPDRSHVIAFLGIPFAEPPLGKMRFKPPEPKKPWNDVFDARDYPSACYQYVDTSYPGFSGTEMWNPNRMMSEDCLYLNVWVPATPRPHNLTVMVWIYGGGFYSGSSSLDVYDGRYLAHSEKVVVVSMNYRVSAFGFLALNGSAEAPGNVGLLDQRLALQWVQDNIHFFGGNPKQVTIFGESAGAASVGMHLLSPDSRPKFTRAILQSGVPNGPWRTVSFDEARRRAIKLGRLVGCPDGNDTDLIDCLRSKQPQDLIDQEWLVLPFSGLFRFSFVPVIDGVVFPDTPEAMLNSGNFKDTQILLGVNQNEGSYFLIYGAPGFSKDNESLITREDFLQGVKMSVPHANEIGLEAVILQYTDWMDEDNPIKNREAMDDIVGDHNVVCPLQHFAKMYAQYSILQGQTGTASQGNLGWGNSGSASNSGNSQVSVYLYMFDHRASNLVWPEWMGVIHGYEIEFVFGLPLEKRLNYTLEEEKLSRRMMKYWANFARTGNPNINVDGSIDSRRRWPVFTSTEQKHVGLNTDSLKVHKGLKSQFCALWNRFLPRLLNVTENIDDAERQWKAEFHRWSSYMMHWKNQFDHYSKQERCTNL
OBSERVABLE: IC50 (µM)
Numbers only, in µM.

Data request: Given the compound COc1cc2ccc(=O)oc2cc1O [scopoletin, 6-methoxy-7-hydroxycoumarin] , write its reported IC50.
Data returned: 5.34

====

SYSTEM_TESTED: Butyrylcholinesterase (BuChE) (Equus caballus, UniProt P81908)
Sequence (P81908 whole entry): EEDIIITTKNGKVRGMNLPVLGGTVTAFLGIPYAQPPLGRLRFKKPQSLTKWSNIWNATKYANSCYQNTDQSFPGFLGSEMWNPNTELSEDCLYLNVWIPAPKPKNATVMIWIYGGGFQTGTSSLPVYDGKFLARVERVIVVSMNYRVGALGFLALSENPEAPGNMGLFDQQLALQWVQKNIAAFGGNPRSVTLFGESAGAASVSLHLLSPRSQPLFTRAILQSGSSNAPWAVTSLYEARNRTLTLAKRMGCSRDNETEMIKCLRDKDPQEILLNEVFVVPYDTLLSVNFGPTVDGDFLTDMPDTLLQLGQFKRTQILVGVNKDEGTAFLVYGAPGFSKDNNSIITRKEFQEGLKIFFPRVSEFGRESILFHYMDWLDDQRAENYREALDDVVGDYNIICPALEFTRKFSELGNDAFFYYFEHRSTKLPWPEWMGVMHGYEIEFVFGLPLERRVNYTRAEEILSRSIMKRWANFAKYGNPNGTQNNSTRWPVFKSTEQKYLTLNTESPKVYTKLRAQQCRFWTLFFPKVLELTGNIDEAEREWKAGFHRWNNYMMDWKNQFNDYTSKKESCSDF
TEST_DESCRIPTION: Ellman's assay, purified enzyme from equine serum
OBSERVABLE: IC50
Write the numeric value and append its unit.

Data request: Let me know recorded IC50 for COc1cc2ccc(=O)oc2cc1O [scopoletin, 6-methoxy-7-hydroxycoumarin] , thanks.
Data returned: 9.11 µM
